B1: VH:VL chains; a variant is named by its letters at X, in order (parent)
chain 1: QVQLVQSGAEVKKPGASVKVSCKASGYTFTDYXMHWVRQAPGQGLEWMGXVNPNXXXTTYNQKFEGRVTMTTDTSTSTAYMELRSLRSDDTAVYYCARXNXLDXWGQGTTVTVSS
chain 2: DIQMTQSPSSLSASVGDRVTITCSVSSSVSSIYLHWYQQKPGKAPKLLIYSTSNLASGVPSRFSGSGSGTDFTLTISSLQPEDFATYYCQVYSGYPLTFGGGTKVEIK

Variants of: B1
Assay: yeast display scFab, FACS + sequencing
Details: with MET
The list shows a part of the results. The hit rate among all sequences tested is not known here.
ASSAY ENDPOINT: antigen binding call

The following variants have reported results that may help.
• VRAKGSAD = binds
• VTREGAVA = no binding
• DARRGAGV = binds
• DAGGGAVA = no binding
• YEERSDAF = no binding
• YRGRAAVS = binds
• YKRGSAGF = binds
• DGGKNAGV = no binding

Now for another entry.
The reported value for "FRAGSAWS" in terms of antigen binding call is binds
